study_system: Cytochrome P450 2C9 (Homo sapiens)
Sequence (P11712 whole entry): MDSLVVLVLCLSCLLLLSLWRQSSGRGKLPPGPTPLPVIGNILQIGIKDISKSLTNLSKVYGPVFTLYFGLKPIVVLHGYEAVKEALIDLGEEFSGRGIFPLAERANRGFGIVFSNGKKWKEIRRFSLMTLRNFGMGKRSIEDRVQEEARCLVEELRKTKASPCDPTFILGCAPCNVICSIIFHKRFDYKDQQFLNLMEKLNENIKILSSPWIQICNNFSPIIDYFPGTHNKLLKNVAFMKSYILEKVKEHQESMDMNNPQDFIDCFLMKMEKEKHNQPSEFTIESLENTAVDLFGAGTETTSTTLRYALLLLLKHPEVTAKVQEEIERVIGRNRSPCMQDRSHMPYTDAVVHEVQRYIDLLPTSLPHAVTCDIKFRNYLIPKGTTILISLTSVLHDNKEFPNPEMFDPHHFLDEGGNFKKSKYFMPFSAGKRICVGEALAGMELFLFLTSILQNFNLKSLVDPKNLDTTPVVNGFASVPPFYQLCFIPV
reported_endpoint: IC50 (nM)

- O=C(Nc1cccc([C@H]2CCCN(c3ncnc4[nH]ccc34)C2)c1)Nc1ccccc1N1CCCC1: 1800

---

experiment_notes: Lipophilicity, log D of the compound
Format: physicochemical
protocol_conditions: octanol/water
reported_endpoint: logD

* O=C(Nc1cccc([C@@H]2CN(c3ncnc4[nH]ccc34)CCN2CCO)c1)Nc1c(F)cccc1N1CCCC1 | 2.6

---

experiment_notes: Plasma clearance in Sprague-Dawley rat at 1 mg/kg, iv
Format: ADME, organism-based
reported_endpoint: clearance (mL/min/kg)

* O=C(Nc1cccc([C@@H]2CN(c3ncnc4[nH]ccc34)CCN2CCO)c1)Nc1c(F)cccc1N1CCCC1 | 6.2

---

Test system Cytochrome P450 2C19 (Homo sapiens), IC50 listed for each of the compounds.
reported_endpoint: IC50

• O=C(Nc1cccc([C@@H]2CN(c3ncnc4[nH]ccc34)CCN2CCO)c1)Nc1c(F)cccc1N1CCCC1 = > 5000 nM
• O=C(Nc1cccc([C@H]2CCCN(c3ncnc4[nH]ccc34)C2)c1)Nc1ccccc1N1CCCC1 = 2200 nM

---

study_system: Tyrosine-protein kinase TXK (Homo sapiens)
Sequence (P42681 whole entry): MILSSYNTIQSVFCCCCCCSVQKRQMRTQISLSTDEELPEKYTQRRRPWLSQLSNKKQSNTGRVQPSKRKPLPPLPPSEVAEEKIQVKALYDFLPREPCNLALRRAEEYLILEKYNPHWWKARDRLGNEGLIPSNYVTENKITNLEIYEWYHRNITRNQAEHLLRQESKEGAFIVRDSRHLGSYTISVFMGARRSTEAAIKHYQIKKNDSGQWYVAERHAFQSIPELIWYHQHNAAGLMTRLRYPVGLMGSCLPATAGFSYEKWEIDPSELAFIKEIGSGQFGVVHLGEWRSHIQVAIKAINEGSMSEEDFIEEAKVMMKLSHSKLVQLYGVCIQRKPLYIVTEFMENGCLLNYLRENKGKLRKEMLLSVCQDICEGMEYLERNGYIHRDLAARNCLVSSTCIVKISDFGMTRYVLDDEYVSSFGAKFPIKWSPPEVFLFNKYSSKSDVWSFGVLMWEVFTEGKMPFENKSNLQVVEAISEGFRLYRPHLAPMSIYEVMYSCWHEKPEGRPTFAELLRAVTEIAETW
reported_endpoint: Kd (nM)

- O=C(Nc1cccc([C@@H]2CN(c3ncnc4[nH]ccc34)CCN2CCO)c1)Nc1c(F)cccc1N1CCCC1: 530

---

study_system: Tyrosine-protein kinase BTK (Homo sapiens)
Sequence (Q06187 whole entry): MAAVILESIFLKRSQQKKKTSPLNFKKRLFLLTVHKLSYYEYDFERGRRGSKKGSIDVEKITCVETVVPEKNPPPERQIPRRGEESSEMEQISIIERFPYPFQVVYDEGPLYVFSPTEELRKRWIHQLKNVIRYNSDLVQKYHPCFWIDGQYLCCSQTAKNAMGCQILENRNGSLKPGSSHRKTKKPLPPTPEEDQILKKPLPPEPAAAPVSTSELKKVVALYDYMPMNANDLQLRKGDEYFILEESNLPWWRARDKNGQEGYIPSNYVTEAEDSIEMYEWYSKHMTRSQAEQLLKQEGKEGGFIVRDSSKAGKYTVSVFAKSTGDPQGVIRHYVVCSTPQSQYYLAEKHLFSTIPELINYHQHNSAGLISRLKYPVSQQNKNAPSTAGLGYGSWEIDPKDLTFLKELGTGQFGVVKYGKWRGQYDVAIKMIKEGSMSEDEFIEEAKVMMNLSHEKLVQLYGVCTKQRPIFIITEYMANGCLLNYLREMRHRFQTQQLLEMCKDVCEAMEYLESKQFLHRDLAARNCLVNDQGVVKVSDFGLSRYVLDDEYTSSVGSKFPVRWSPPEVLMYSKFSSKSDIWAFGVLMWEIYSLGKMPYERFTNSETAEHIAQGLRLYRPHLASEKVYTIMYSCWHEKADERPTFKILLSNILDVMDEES
experiment_notes: biochemical
Description: Reversible inhibition of recombinant full-length N-terminal 6-His-tagged human BTK expressed in baculovirus infected Sf21 insect cells using fluorescent-labeled polyGAT peptide as substrate incubated for 30 mins by TR-FRET assay
pIC50: −log10 of the molar value.
reported_endpoint: pIC50

- O=C(NCCC#CCCNc1ncnc2[nH]ccc12)Nc1ccccc1: 4.72
- O=C(Nc1cccc(C2CCCN(c3ncnc4[nH]ccc34)C2)c1)Nc1ccccc1C1CC1 (racemic): 6.70
- O=C(Nc1cccc([C@@H]2CN(c3ncnc4[nH]ccc34)CCN2CCO)c1)Nc1c(F)cccc1N1CCCC1: 9.00
- O=C(Nc1ccc(F)cc1)Nc1cccc(C2CCCN(c3ncnc4[nH]ccc34)C2)c1 (configuration not stated): 5.89
- O=C(Nc1cccc(C2CCCN(c3ncnc4[nH]ccc34)C2)c1)Nc1ccccc1N1CCCCC1 (racemic): 6.26
- O=C(NCCCCCNc1ncnc2[nH]ccc12)Nc1ccccc1: 4.80

---

experiment_notes: Oral bioavailability in Sprague-Dawley rat using amorphous solid form of compound
Type: ADME, organism-based
protocol_conditions: in vivo
reported_endpoint: bioavailability (%)

• O=C(Nc1cccc([C@@H]2CN(c3ncnc4[nH]ccc34)CCN2CCO)c1)Nc1c(F)cccc1N1CCCC1 = 12

---

experiment_notes: AUC (infinity) in po dosed Sprague-Dawley rat using amorphous solid form of compound
Format: ADME, organism-based
Parameters: route oral, time infinity
protocol_conditions: in vivo
reported_endpoint: AUC(0-inf) (ng·h/mL)

* O=C(Nc1cccc([C@@H]2CN(c3ncnc4[nH]ccc34)CCN2CCO)c1)Nc1c(F)cccc1N1CCCC1 | 1890

---

experiment_notes: Apparent permeability from apical to basolateral side in human Caco2 cells at 5 uM after 120 mins by LC-MS/MS analysis
Assay type: ADME, cell-based
protocol_conditions: Caco-2
reported_endpoint: Papp A→B at 2 h, 5 µM (×10⁻⁶ cm/s)

• O=C(Nc1cccc([C@@H]2CN(c3ncnc4[nH]ccc34)CCN2CCO)c1)Nc1c(F)cccc1N1CCCC1 = 4

---

study_system: Tyrosine-protein kinase BTK (Homo sapiens)
experiment_notes: biochemical
Doc: threshold 3 µM (exclusive). Items with IC50 beneath it return Satisfied; others return Not satisfied.

• O=C(Nc1cccc(F)c1)Nc1cccc(C2CCCN(c3ncnc4[nH]ccc34)C2)c1 (stereo not given) = Satisfied
• O=C(Cc1ccccc1)Nc1cccc(C2CCCN(c3ncnc4[nH]ccc34)C2)c1 (stereo not given) = Not satisfied
• O=C(Nc1ccncc1)Nc1cccc(C2CCCN(c3ncnc4[nH]ccc34)C2)c1 (stereo not given) = Not satisfied
• O=C(Nc1cccc(C2CCCN(c3ncnc4[nH]ccc34)C2)c1)Nc1ccccn1 (stereo not given) = Satisfied
• O=C(Nc1cccc(Cl)c1)Nc1cccc(C2CCCN(c3ncnc4[nH]ccc34)C2)c1 (stereo not given) = Satisfied
• O=C(Nc1cccc(C2CCCN(c3ncnc4[nH]ccc34)C2)c1)Nc1ccccc1C1CCCC1 (racemic) = Satisfied
• O=S(=O)(Nc1cccc(C2CCCN(c3ncnc4[nH]ccc34)C2)c1)c1ccccc1 (stereo not given) = Not satisfied
• O=C(NCCCC1CCCN(c2ncnc3[nH]ccc23)C1)Nc1ccccc1 (racemic) = Satisfied
• O=C(NCCc1cccc(Nc2ncnc3[nH]ccc23)c1)Nc1ccccc1 = Not satisfied
• O=c1c(Nc2ccccc2)c(Nc2cccc(C3CCCN(c4ncnc5[nH]ccc45)C3)c2)c1=O (stereo not given) = Not satisfied
• O=C(Nc1cccnc1)Nc1cccc(C2CCCN(c3ncnc4[nH]ccc34)C2)c1 (stereo not given) = Not satisfied
• O=C(Nc1ccc(Cl)cc1)Nc1cccc(C2CCCN(c3ncnc4[nH]ccc34)C2)c1 (stereo not given) = Satisfied
• O=C(Nc1cccc(C2CCCN(c3ncnc4[nH]ccc34)C2)c1)Nc1ccccc1F (stereo not given) = Satisfied
• O=C(Nc1cccc(C2CCCN(c3ncnc4[nH]ccc34)C2)c1)c1ccccc1 (stereo not given) = Not satisfied
• CC(C)(C)c1ccccc1NC(=O)Nc1cccc(C2CCCN(c3ncnc4[nH]ccc34)C2)c1 (racemic) = Satisfied
• O=C(NCCCCCCNc1ncnc2[nH]ccc12)Nc1ccccc1 = Not satisfied
• O=C(Nc1cccc(C2CCCN(c3ncnc4[nH]ccc34)C2)c1)Nc1ccccc1C(F)(F)F (stereo not given) = Satisfied
• O=C(Nc1ccccc1)Nc1cccc(CCNc2ncnc3[nH]ccc23)c1 = Not satisfied
• N#C/N=C(\Nc1ccccc1)Nc1cccc(C2CCCN(c3ncnc4[nH]ccc34)C2)c1 (stereo not given) = Not satisfied
• c1cc(Nc2nc3ccccc3[nH]2)cc(C2CCCN(c3ncnc4[nH]ccc34)C2)c1 (stereo not given) = Not satisfied

---

study_system: Tyrosine-protein kinase ITK/TSK (Homo sapiens, UniProt Q08881)
Sequence (Q08881 whole entry): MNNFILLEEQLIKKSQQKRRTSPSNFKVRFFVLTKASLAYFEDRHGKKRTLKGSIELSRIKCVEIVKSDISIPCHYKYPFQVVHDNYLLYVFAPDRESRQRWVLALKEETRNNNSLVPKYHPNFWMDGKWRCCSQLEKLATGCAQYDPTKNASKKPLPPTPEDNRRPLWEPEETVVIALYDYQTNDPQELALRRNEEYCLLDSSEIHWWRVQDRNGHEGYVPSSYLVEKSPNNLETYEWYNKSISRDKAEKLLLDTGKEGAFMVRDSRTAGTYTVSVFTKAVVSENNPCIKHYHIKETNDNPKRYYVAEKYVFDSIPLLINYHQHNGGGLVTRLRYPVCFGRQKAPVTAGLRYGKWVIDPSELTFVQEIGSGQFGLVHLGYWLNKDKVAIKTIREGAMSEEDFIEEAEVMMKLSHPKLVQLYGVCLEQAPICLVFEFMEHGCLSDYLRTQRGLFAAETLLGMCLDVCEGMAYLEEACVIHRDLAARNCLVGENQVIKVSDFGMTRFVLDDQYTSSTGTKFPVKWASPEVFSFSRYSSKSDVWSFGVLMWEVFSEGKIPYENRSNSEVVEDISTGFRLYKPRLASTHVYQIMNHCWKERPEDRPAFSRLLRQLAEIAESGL
// reported Kd per item
reported_endpoint: Kd (nM)

• O=C(Nc1cccc([C@H]2CCCN(c3ncnc4[nH]ccc34)C2)c1)Nc1ccccc1N1CCCC1 = 400
• O=C(Nc1cccc([C@@H]2CN(c3ncnc4[nH]ccc34)CCN2CCO)c1)Nc1c(F)cccc1N1CCCC1 = 5

---

study_system: Cytochrome P450 3A4 (Homo sapiens)
Sequence (P08684 whole entry): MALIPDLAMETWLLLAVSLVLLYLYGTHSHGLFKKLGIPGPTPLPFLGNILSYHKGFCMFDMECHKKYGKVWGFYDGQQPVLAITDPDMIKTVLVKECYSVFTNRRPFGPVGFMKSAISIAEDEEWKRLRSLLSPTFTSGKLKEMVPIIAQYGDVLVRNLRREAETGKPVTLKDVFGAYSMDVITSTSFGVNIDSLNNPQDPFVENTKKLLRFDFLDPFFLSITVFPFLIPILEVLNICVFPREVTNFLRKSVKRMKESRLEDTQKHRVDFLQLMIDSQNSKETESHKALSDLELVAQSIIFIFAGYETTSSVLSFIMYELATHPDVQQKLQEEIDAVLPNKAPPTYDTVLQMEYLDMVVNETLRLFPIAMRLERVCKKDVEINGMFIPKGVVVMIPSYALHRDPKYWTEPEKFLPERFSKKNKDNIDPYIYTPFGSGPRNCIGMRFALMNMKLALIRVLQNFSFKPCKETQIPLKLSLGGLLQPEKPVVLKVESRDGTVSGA
reported_endpoint: IC50 (nM)

• O=C(Nc1cccc([C@H]2CCCN(c3ncnc4[nH]ccc34)C2)c1)Nc1ccccc1N1CCCC1 = 1000

---

study_system: Cytochrome P450 1A2 (Homo sapiens, UniProt P05177)
Sequence (P05177 whole entry): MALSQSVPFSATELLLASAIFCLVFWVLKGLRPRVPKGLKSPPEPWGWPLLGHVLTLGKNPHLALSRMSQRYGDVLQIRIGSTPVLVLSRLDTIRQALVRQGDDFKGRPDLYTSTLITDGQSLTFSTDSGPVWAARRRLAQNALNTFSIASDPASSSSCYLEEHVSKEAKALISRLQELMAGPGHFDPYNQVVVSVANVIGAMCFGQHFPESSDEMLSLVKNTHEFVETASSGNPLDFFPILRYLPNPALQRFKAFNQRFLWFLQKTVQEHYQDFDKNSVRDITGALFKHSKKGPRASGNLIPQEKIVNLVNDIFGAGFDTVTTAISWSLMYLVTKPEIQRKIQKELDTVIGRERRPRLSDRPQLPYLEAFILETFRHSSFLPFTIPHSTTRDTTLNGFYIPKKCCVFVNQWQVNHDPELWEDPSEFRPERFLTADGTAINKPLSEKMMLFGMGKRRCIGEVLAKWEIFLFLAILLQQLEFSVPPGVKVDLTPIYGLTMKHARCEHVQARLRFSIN
reported_endpoint: IC50 (µM)

• O=C(Nc1cccc([C@H]2CCCN(c3ncnc4[nH]ccc34)C2)c1)Nc1ccccc1N1CCCC1 = 2.2
